Tested on: OVCAR-8 ovarian
Experiment: NCI tumour cell line growth inhibition, 48 h
Assay Endpoint: TGI

Documented TGI of COC(=O)NCCc1[nH]nc2c1C(=O)C=C(OC)C2=O : 42.8 µM

For this molecule ( OC(c1cccs1)c1cc2ccccc2s1 (stereo not given) ), measured TGI is > 10 µM

TGI reading for COc1cc2cc(Oc3ccc(NC(=O)Nc4ccccc4)cc3)c(C)nc2cc1OCCN1CCCCC1 : 15.3 µM

Value of TGI reported for the molecule C(CCc1nnc2c(n1)CCCC2)Cc1nnc2c(n1)CCCC2 is > 100 µM

TGI reading for COc1ccc(-c2cc(-c3ccc(Nc4ccnc5cc(C(F)(F)F)ccc45)cc3)[nH]c(=O)c2C#N)c2ccccc12 : > 100 µM

// TGI value for FC(F)(F)c1ccc2c(c1)nc(Cc1ccccc1)n2C[C@@H]1CCCN2CCCCC12 (stereo not given in full) : 29.7 µM

Record CC12O[C@H](c3ccccc3)[C@H](c3ccccc3)N1C(=O)C1(C(=O)OCc3ccccc3)CC12 (stereo not given in full) . Reported TGI: > 100 µM

Measured TGI, Cc1ccc(S(=O)(=O)N2CCSCCSCCN(S(=O)(=O)c3ccc(C)cc3)CCN(S(=O)(=O)c3ccc(C)cc3)CC2)cc1 : > 100 µM

For record C/C(Cl)=N\OC(=O)Nc1ccccc1C(F)(F)F the listed TGI is > 100 µM

For this molecule ( O=C1CC(Br)c2c(Cl)sc(Cl)c21 (stereo not given) ), measured TGI is 10.4 µM

Provenance of the data: PubChem BioAssay (NCI)
